Target: PfFNT (Plasmodium falciparum, UniProt O77389)
Construct: expressed in transfected cells; membranes solubilized
Sequence (O77389 1-309): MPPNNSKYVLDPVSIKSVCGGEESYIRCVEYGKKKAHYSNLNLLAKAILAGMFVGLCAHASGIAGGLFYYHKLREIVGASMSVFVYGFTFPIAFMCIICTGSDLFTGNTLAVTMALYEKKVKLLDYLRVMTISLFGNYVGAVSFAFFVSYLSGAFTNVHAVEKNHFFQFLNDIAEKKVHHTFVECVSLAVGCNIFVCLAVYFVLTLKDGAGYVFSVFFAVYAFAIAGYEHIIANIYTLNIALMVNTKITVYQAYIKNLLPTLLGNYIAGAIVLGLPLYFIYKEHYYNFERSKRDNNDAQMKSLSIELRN
Test: Yeast-based PfFNT 14C-lactate transport assay
Type: cell-based
Details: 14C-lactate transport, PfFNT wild type; read-out: IC50 (transport, yeast)
endpoint-name: log10(IC50) (log10 of the value in nM)

1) COc1cc(CNc2ccc(C(=O)/C=C(\O)C(F)(F)C(F)(F)F)cn2)cc(OC)c1OC; 3.32
2) Nc1ccc(C(=O)/C=C(\O)C(F)(F)C(F)(F)F)cn1; 2.28
3) O=C(/C=C(\O)C(F)(F)C(F)(F)F)c1ccc(NC2CC2)nc1; 2.28
4) O=C(/C=C(\O)C(F)(F)C(F)(F)F)c1cccs1; 2.04
5) O=C(/C=C(\O)C(F)(F)C(F)(F)F)c1ccc(NCC2CC2)nc1; 2.23
6) O=C(/C=C(\O)C(F)(F)C(F)(F)F)c1cccc(O)c1; 2.20
7) O=C(/C=C(\O)C(F)(F)C(F)(F)F)c1ccsc1; 2.18
8) CCCNc1ccc(C(=O)/C=C(\O)C(F)(F)C(F)(F)F)cn1; 2.30
9) O=C(/C=C(\O)C(F)(F)C(F)(F)F)c1ccc(NCC(F)(F)F)nc1; 2.32
10) COC(F)(F)C(F)(F)/C(O)=C/C(=O)c1cccnc1; 2.49
11) O=C(/C=C(\O)C(F)(F)c1ccccc1)c1cccnc1; 3.06

---

target: PfFNT (Plasmodium falciparum); construct: expressed in transfected cells; membranes solubilized; experiment: Fluorescence cross-correlation spectroscopy (FCCS) competition binding to solubilized PfFNT-GFP
pKi: −log10 of the molar value.
Please use Criterion met whenever pKi is not below 7, and Criterion not met whenever it is.

1) CC(C)(C)Nc1ccc(C(=O)/C=C(\O)C(F)(F)C(F)(F)F)cn1 [7o]; Criterion not met
2) CC(=O)Nc1ccc(C(=O)/C=C(\O)C(F)(F)C(F)(F)F)cn1 [8a]; Criterion met
3) O=C(/C=C(\O)C(F)(F)C(F)(F)F)c1ccc(NCC(F)(F)F)nc1 [7i]; Criterion met
4) O=C(/C=C(\O)C(F)(F)C(F)(F)F)c1ccco1 [5a]; Criterion met
5) CCCCNc1ccc(C(=O)/C=C(\O)C(F)(F)C(F)(F)F)cn1 [7f]; Criterion met
6) O=C(/C=C(\O)C(F)(F)C(F)(F)Cl)c1cccnc1 [3d]; Criterion met
7) O=C(/C=C(\O)C(F)(F)C(F)(F)F)c1cccs1 [5c]; Criterion met
8) CCCNc1ccc(C(=O)/C=C(\O)C(F)(F)C(F)(F)F)cn1 [7e]; Criterion met
9) FC(F)(F)C(F)(F)c1nc(-c2cccnc2)n[nH]1 [4a]; Criterion not met
10) CC(C)CNc1ccc(C(=O)/C=C(\O)C(F)(F)C(F)(F)F)cn1 [7j]; Criterion met
11) COc1cc(CNc2ccc(C(=O)/C=C(\O)C(F)(F)C(F)(F)F)cn2)cc(OC)c1OC [7q]; Criterion met
12) CNc1ccc(C(=O)/C=C(\O)C(F)(F)C(F)(F)F)cn1 [7c]; Criterion met
13) CCC(=O)Nc1ccc(C(=O)/C=C(\O)C(F)(F)C(F)(F)F)cn1 [8b]; Criterion met
14) O=C(/C=C(\O)C(F)(F)C(F)(F)F)c1ccc(NC(=O)c2ccccc2)nc1 [8c]; Criterion met
15) CCNc1ccc(C(=O)/C=C(\O)C(F)(F)C(F)(F)F)cn1 [7d]; Criterion met
16) O=C(/C=C(\O)C(F)(F)c1ccccc1)c1cccnc1 [3a]; Criterion not met
17) O=C(/C=C(\O)C(F)(F)C(F)(F)F)c1cccc(O)c1 [compound 6]; Criterion met
18) O=C(/C=C(\O)C(F)(F)C(F)(F)F)c1ccc(N2CCNCC2)nc1 [7t]; Criterion not met
19) O=C(/C=C(\O)C(F)(F)C(F)(F)F)c1ccc(NCc2ccccc2)nc1 [7a]; Criterion met
20) O=C(/C=C(\O)C(F)(F)C(F)(F)F)c1ccc(NCC2CC2)nc1 [7m]; Criterion met
21) COCCCNc1ccc(C(=O)/C=C(\O)C(F)(F)C(F)(F)F)cn1 [7h]; Criterion met
22) O=C(/C=C(\O)C(F)(F)C(F)(F)F)c1ccc(NCc2ccc(F)cc2)nc1 [7p]; Criterion met
23) Nc1ccc(C(=O)/C=C(\O)C(F)(F)C(F)(F)F)cn1 [7b]; Criterion met
24) FC(F)(F)C(F)(F)c1cc(-c2cccnc2)n[nH]1 [4b]; Criterion not met
25) O=C(/C=C(\O)C(F)(F)C(F)(F)F)c1ccc(NC2CCC2)nc1 [7l]; Criterion met
26) CCCCCNc1ccc(C(=O)/C=C(\O)C(F)(F)C(F)(F)F)cn1 [7g]; Criterion met
27) O=C(/C=C(\O)C(F)(F)C(F)(F)F)c1ccc(NC2CC2)nc1 [7k]; Criterion met

---

test: Lipophilicity log D7.4 by HPLC (OECD guideline); assay type: physicochemical; details: RP-8 HPLC column (ZORBAX Eclipse XDB-C8), pH 7.4
endpoint-name: chromatographic logD

1. CC(=O)Nc1ccc(C(=O)/C=C(\O)C(F)(F)C(F)(F)F)cn1; 1.7
2. CCCNc1ccc(C(=O)/C=C(\O)C(F)(F)C(F)(F)F)cn1; 3.18
3. O=C(/C=C(\O)C(F)(F)C(F)(F)F)c1cccnc1 [compound 2, reference compound]; 1.75

---

test system: Plasmodium falciparum 3D7 parasites; assay: P. falciparum 3D7 culture growth assay in erythrocytes (in vitro activity); type: cell-based; conditions: Plasmodium falciparum, 3D7, Erythrocyte, 48 h; 100 nM compound, % of untreated control; read-out: % Growth at 100 nM (in vitro, 3D7)
activity at 0.1 µM by entry:
endpoint-name: activity at 0.1 µM

1. O=C(/C=C(\O)C(F)(F)C(F)(F)F)c1ccc(NCC(F)(F)F)nc1 [7i]; 38%
2. CCN(CC)c1ccc(C(=O)/C=C(\O)C(F)(F)C(F)(F)F)cn1 [7s]; 76%
3. CC(C)Nc1ccc(C(=O)/C=C(\O)C(F)(F)C(F)(F)F)cn1 [7n]; 31%
4. O=C(/C=C(\O)C(F)(F)C(F)(F)F)c1ccc(NCc2ccc(F)cc2)nc1 [7p]; 7%

---

Target: PfFNT (Plasmodium falciparum)
Construct: expressed in transfected cells; membranes solubilized
Sequence (O77389 1-309): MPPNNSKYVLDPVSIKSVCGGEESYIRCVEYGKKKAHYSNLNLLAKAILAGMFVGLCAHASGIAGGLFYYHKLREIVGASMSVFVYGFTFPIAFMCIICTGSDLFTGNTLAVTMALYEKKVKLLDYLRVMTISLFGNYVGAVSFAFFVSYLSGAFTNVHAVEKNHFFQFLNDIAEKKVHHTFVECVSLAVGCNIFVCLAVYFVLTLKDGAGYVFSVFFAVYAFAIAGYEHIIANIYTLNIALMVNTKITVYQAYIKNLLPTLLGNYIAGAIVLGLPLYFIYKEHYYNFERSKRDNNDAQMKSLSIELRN
Experiment: Fluorescence cross-correlation spectroscopy (FCCS) competition binding to solubilized PfFNT-GFP
Procedure: FCCS measurements were conducted and analyzed as before.[20],[30] Briefly, membranes of stably transfected cells expressing PfFNT with a C-terminal GFP (green) were solubilized. […] Assays were done in 384-well glass bottom plates (cat. no. PS96B-G175, SWISSCI, Switzerland) using a plate reader (Insight, Evotec Technologies, Germany) fitted with a U-Apo300 40× water immersion lens, NA 1.15 (Olympus, Japan). […]
pKi: −log10 of the molar value.
endpoint-name: pKi

1. O=C(/C=C(\O)C(F)(F)C(F)(F)F)c1ccsc1; 7.07
2. COC(F)(F)C(F)(F)/C(O)=C/C(=O)c1cccnc1; 7.03
3. CCCN(C)c1ccc(C(=O)/C=C(\O)C(F)(F)C(F)(F)F)cn1; 7.01
4. O=C(/C=C(\O)C(F)(F)C(F)(F)F)c1ccoc1; 7.14
5. CCN(CC)c1ccc(C(=O)/C=C(\O)C(F)(F)C(F)(F)F)cn1; 6.85
6. CC(C)Nc1ccc(C(=O)/C=C(\O)C(F)(F)C(F)(F)F)cn1; 7.17

Origin of measurements: paper PMC11513924
